Provide the reported Percentage of the pool, averaged across the two sequencing samples of each item.
Molecular target: biotinylated CD59 (Homo sapiens)
Construct: Recombinant soluble human CD59 with an additional C-terminal cysteine residue
Sequence (P13987 26-102 limits assumed): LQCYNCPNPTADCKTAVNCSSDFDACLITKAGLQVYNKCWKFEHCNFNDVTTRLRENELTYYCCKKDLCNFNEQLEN
Assay: mRNA-display cyclic peptide screen against CD59-biotin, NGS abundance after 6th selection round
Conditions: average of Seq I and Seq II, sheet R6
Your reply should be a number followed by the unit it is expressed in.

Request: Request the reported Percentage of the pool, averaged across the two sequencing samples associated with CLRRSFLDNAGV
Response: 0.015%

Request: Next sequence up: HAFGNRSFTRG
Response: 0.015%

Request: Next up: VARGDWNHQFY
Response: 0.013%

Request: FARGDWNHQFY
Response: 0.017%

Request: Next sequence up: CFLTRASQLSGT
Response: 0.010%

Request: Repeat for the following sequence: HCWVRGSRNYS
Response: 0.011%

Request: // repeat for LLGARDYVRLWH and report
Response: 0.013%

Request: Also, SAWGNRQIQHY please.
Response: 0.012%

Request: Cool, now CFAGRLTIDAG
Response: 0.011%

Request: Next sequence: FVTGNRDHTRE
Response: 0.012%

Request: Now this one: PFAKRVAAQGGC
Response: 0.010%

Request: Next sequence up: GRVRTCPVIV
Response: 0.013%

Request: Consider next the sequence CFSPRVTEHST in the same way.
Response: 0.016%

Request: Next up: VLCHRWHVGSHR
Response: 0.014%

Request: Do the same for CFGGRTFIYAWS please
Response: 0.010%

Request: Continue with GRLNECHVIRP
Response: 0.013%

Request: Query GRRNECLSRTS next
Response: 0.011%

Request: Next: CFTGRLTIDAV
Response: 0.010%

Request: Same thing, different sequence: RTCHLRHDGPHA
Response: 0.014%

Request: What do we get for NYVERLCTSG ?
Response: 0.014%

Request: Same for FIRGNSTSVPF
Response: 0.010%

Request: Input WIYGGRHFRLS
Response: 0.012%

Request: Also check FIRGNSTSVLY
Response: 0.016%

Request: Record: SAWGNRYIAYY
Response: 0.012%

Request: Further, for SYGGRTFIYAWS ?
Response: 0.013%

Request: Quick one: YSCPDWVRGSRT
Response: 0.011%

Provenance of the data: paper PMC12207370
